Target: P1R-DelNt (Homo sapiens, UniProt Q03431)
Construct: expressed in transfected cells
Sequence (Q03431 with tags, fused parts or gaps limits assumed): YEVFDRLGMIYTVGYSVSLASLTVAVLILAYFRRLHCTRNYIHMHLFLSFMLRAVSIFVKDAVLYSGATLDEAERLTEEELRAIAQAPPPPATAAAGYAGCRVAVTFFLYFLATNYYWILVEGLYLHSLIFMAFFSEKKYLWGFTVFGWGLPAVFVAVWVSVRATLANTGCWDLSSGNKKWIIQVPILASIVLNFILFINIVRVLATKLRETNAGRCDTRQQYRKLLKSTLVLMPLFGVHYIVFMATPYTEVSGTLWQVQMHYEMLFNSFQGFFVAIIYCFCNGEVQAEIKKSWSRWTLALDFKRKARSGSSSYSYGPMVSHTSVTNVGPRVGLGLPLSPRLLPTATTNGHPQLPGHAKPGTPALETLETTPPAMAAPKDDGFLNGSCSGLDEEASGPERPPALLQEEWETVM
Test: cAMP stimulation in LdelNt-2 cells
Format: cell-based
Conditions: percent of maximum response of PTH(1-11)
MEASURED PROPERTY: Emax

GET /values?readout=Emax&item= H-AVAEIALMHQR-NH2 [[Ala^6]PTH(1-11)] 14%

Now consider H-AVAEIALMHAR-NH2 [[Ala^6, Ala^10]PTH(1-11)] . 42%

How about H-AVAEIQLMHAR-NH2 [[Ala^10]PTH(1-11)] ? 79%

Further cases:
Would you kindly share the measured Emax for H-AVAEIQLMHQR-NH2 [PTH(1-11)(SEQ. ID. NO. 8), AlaValAlaGluIleGlnLeuMetHisGlnArg-amide] ? 100%

---

Target: P1R (Homo sapiens, UniProt Q03431)
Construct: expressed in transfected cells
Sequence (Q03431 27-593): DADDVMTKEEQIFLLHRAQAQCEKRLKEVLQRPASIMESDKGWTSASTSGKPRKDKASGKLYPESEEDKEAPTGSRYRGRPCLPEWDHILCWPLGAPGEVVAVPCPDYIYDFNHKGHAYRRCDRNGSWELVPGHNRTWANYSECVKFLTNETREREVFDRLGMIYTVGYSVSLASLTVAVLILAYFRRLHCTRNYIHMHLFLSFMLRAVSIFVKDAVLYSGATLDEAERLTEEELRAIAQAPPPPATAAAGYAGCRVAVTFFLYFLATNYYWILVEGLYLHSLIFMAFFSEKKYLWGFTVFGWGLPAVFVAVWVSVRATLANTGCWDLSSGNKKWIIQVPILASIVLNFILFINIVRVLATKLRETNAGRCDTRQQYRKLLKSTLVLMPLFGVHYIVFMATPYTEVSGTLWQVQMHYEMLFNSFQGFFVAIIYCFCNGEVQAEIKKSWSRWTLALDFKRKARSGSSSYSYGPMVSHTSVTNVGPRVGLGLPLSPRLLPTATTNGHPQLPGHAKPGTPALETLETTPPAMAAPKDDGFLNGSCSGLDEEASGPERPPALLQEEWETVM
Experiment: cAMP stimulation in HKRK-B7 cells
Type: cell-based
Settings: cAMP response, Table 1
MEASURED PROPERTY: Emax (%)
Answer with a number only, understood to be in %.

Some solved entries appear below for comparison.
Suppose we examine the substance H-AVAEIQLMHAR-NH2 [[Ala^10]PTH(1-11)] ; what Emax value has been reported? 88

Now try H-AVAEIQLMHQR-NH2 [PTH(1-11)(SEQ. ID. NO. 8), AlaValAlaGluIleGlnLeuMetHisGlnArg-amide] . 100

What do we get for H-AVAEIALMHQR-NH2 [[Ala^6]PTH(1-11)] ? 26

Others:
Quick one: Emax of H-AVAEIALMHAR-NH2 [[Ala^6, Ala^10]PTH(1-11)] ? 41
